assay explanation: caspase-8 TRAIL sensitization, hit retest, confirmation, cell-based, NB7+caspase-8, with/without TRAIL, luminescence panel (AID 651596)
applied conditions: NB7 neuroblastoma + caspase-8, without TRAIL, luminescence viability, without TRAIL, mean of runs, at 10 µM
I'd appreciate it if you could supply activity values for the items below.
# output: bare number, implied unit %

### Prompt So what does the record say about activity for "Nc1ccccc1C(=O)NN=Cc1cccc([N+](=O)[O-])c1" ?
### Response 42.9

### Prompt So what does the record say about activity for "O=C(/C=C\Nc1ccccn1)c1ccc(Cl)cc1" ?
### Response 63.3

### Prompt So what does the record say about activity for "N=c1n(CC(=O)c2ccc(Br)s2)c2ccccc2n1Cc1ccccc1" ?
### Response 20.6

### Prompt So what does the record say about activity for "COc1ccc(C(=O)/C=C/Nc2ccccn2)cc1" ?
### Response 68.6

### Prompt So what does the record say about activity for "Oc1cccc(-c2nnc(-c3cccc(O)c3)nn2)c1" ?
### Response 84.2

### Prompt So what does the record say about activity for "Cn1c(=O)c(C(=O)Nc2ccccn2)c(O)c2ccccc21" ?
### Response 58.8

### Prompt So what does the record say about activity for "NC(N)=Nc1ccc(C=C2C=Cc3ccccc32)cc1" ?
### Response 68.5

### Prompt So what does the record say about activity for "O=C(/C=C/NNC(=O)c1ccccc1)c1ccc([N+](=O)[O-])cc1" ?
### Response 20

### Prompt So what does the record say about activity for "CC(C)(C)OC(=O)NCCCCCc1cn([C@@H](CO)C(=O)NCCCCCCCCCCC(=O)N2CCN(C(=O)OC(C)(C)C)CC2)nn1" ?
### Response 42.1

### Prompt So what does the record say about activity for "Oc1ccc(-c2cnc(-c3ccc(O)cc3)nc2)cc1" ?
### Response 93.3

### Prompt So what does the record say about activity for "N#CC1(NC(=O)Cn2ncc(Cl)c(Cl)c2=O)CCCCC1" ?
### Response 99.2

### Prompt So what does the record say about activity for "COc1ccc(-c2cc(-c3nc4ccccn4c3NCc3ccccc3)ccc2OC)cc1" ?
### Response 88.6

### Prompt So what does the record say about activity for "O=C(C[C@@H]1C/C=C/CC[C@H](Cc2ccc(F)cc2)C(=O)OC[C@@H](Cc2ccccc2)NC1=O)N[C@H](CO)Cc1ccccc1" ?
### Response 95.8

### Prompt So what does the record say about activity for "Cc1nc(-c2ccc(NC(=O)c3ccccc3)cc2)cs1" ?
### Response 76.2

### Prompt So what does the record say about activity for "COc1ccc2sc(-c3ccc(S(C)(=O)=O)cc3)c(C#Cc3cncn3C)c2c1" ?
### Response 34.3

### Prompt So what does the record say about activity for "CC(C)OC(=O)Nc1ccc2c(c1)N(C(=O)N1CCN(C)CC1)c1ccccc1CC2" ?
### Response 84.2

### Prompt So what does the record say about activity for "Cc1ccc2sc(N(CCCN(C)C)C(=O)c3ccc(S(=O)(=O)N(C)Cc4ccccc4)cc3)nc2c1C" ?
### Response 32.9

### Prompt So what does the record say about activity for "CN=c1scc(-c2ccccc2F)n1/N=C(\C)c1cccnc1" ?
### Response 51.2

### Prompt So what does the record say about activity for "C#Cc1cccc(Nc2nc(NCc3ccccc3OC)nc3ccsc23)c1" ?
### Response 37.5

### Prompt So what does the record say about activity for CC(NC(=O)CCl)c1ccc(Cl)c(Cl)c1 (centres undefined) ?
### Response 81.5

### Prompt So what does the record say about activity for "CC(=O)n1cc(N(C(=O)CCl)c2ccccc2)c2ccccc21" ?
### Response 99.8

### Prompt So what does the record say about activity for "Cc1ccc(NC(=O)C(=O)Nc2ccccn2)cc1" ?
### Response 71.7

### Prompt So what does the record say about activity for "COc1ccc(Nc2nc(-c3ccccc3)nc3ccccc23)cc1S(=O)(=O)N1CCOCC1" ?
### Response 25.6

### Prompt So what does the record say about activity for "C#CCN(C[C@@H]1[C@@H](OC(=O)NCC2CCCCC2)[C@@H](OC(=O)NCC2CCCCC2)Cn2c(=O)ccc(=O)n21)S(=O)(=O)c1ccc(C)cc1" ?
### Response 98.3

### Prompt So what does the record say about activity for "COc1ccc(-n2cc(C(=O)c3ccccc3O)cn2)cc1" ?
### Response 29.7

### Prompt So what does the record say about activity for "Cc1ccc(-c2nc(NC(=O)c3nn(C)cc3[N+](=O)[O-])sc2C)cc1C" ?
### Response 99.1

### Prompt So what does the record say about activity for "O=C(Nc1ccc2c(c1)OCCO2)Nc1ccc2c(c1)OCO2" ?
### Response 79.5

### Prompt So what does the record say about activity for "Cc1cccc(Cn2ncc(Cl)c(Cl)c2=O)c1" ?
### Response 98.9

### Prompt So what does the record say about activity for "O=[N+]([O-])c1cc(S(=O)(=O)C(F)(F)F)ccc1Sc1nc2ccccc2[nH]1" ?
### Response 94.2

### Prompt So what does the record say about activity for "COc1ccc2nc(NN=C(C)c3ccccn3)cc(C)c2c1" ?
### Response 80.1

### Prompt So what does the record say about activity for O=C(CCl)N1CCCC1c1ccc2c(c1)OCCO2 (centres undefined) ?
### Response 97.8

### Prompt So what does the record say about activity for CC(c1ccco1)N(C(=O)COc1ccc(Cl)cc1Cl)c1ccccn1 (centres undefined) ?
### Response 10.2

### Prompt So what does the record say about activity for "Nc1nn2cc(-c3ccccc3)nc2c2ccccc12" ?
### Response 53.4

### Prompt So what does the record say about activity for "Cc1ccc(C(=O)/C=C/Nc2ccccn2)cc1" ?
### Response 79.8

### Prompt So what does the record say about activity for "COc1ccc(-c2cn3ccccc3n2)cc1" ?
### Response 87.1

### Prompt So what does the record say about activity for "Fc1ccc(-c2nnc(NC3=NCCCCC3)o2)cc1" ?
### Response 77.7

### Prompt So what does the record say about activity for "O=C(N/N=C\c1cccc(OC(=O)c2ccco2)c1)c1ccc2c(c1)OCO2" ?
### Response 74.1

### Prompt So what does the record say about activity for "Cc1ccc(-c2nc(-c3ccncc3)no2)c(Cl)c1" ?
### Response 57.1

### Prompt So what does the record say about activity for "CCN1CCN(Cc2ccc(NC(=O)c3cc(NC(=O)c4cncc(-c5ccc(C#N)cc5)c4)cc(OC)c3)cc2C(F)(F)F)CC1" ?
### Response 98.7

### Prompt So what does the record say about activity for "COc1cc(SC)ccc1C(=O)NNC(=O)c1cc(C)oc1C" ?
### Response 70.8

### Prompt So what does the record say about activity for "Cc1ccc(-c2nn(-c3ccccc3)cc2NC(=O)CCl)cc1" ?
### Response 95

### Prompt So what does the record say about activity for "C/C(=N\NC(=O)c1ccccn1)c1ccc(Cl)cc1" ?
### Response 46

### Prompt So what does the record say about activity for "O=C(Nc1ccc2c(c1)OCCO2)c1ccccc1" ?
### Response 54.6

### Prompt So what does the record say about activity for "CSc1nnc(NC(=O)c2nc(S(=O)(=O)Cc3ccccc3F)ncc2Cl)s1" ?
### Response 58.1

All values here come from PubChem BioAssay.
